biological target: 26S proteasome non-ATPase regulatory subunit 14 (Homo sapiens, UniProt O00487); experiment: Inhibition of 26S proteasome regulatory subunit RPN11 deubiquitinating activity in beta5 inhibitor MG132 pretreated human HeLa cells expressing UbG76V-GFP assessed as reduction in UbG76V-GFP degradation rate by fluorescence microscopic method; format: cell-based
Sequence (O00487 whole entry): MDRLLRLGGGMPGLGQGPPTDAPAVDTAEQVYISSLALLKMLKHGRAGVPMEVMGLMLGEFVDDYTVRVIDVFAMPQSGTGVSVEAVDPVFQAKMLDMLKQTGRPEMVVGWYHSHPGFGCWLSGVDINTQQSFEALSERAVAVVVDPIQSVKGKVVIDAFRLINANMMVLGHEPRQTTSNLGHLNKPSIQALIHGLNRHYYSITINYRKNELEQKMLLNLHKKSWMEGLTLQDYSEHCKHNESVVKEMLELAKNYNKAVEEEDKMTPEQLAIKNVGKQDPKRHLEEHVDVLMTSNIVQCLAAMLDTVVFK
pIC50: −log10 of the molar value.
Recorded pIC50 values for a group of compounds are listed next.

smiles.text	value.measured
O=C(NCCc1nccs1)c1ccc2c(SSc3cccc4nc(C(=O)NCCc5nccs5)ccc34)cccc2n1	< 4.00
O=C(NCc1cccnc1)c1cnc2c(SSc3cccc4cc(C(=O)NCc5cccnc5)cnc34)cccc2c1	< 5.00
O=C(NCc1ccc2c(c1)OCO2)c1cnc2c(SSc3cccc4cc(C(=O)NCc5ccc6c(c5)OCO6)cnc34)cccc2c1	< 5.00

Please look at the following compound next.
The recorded pIC50 for entry `CSc1cccc2cc(C(=O)NCCc3nccs3)cnc12` equals < 4.00
